Tested on: Fibroblast
assay.summary: Incucyte cell viability with human fibroblast; also: filed as whole numbers so only -1 and 0 and 1 occur
Type: toxicity, cell-based
condition: 6 h, 10 µM, compound concentration 10 uM, replicate number 2, timepoint 6 hours
measured.quantity: Growth Rate
Give only the figure.

molecule: O=S1(=O)c2cccc3cccc(c23)N1CCCN1CCN(c2ccc(F)cc2)CC1
measured.quantity: Growth Rate
value.reported: 0
//
molecule: CNC(=O)c1ccc(Nc2ncc(C(F)(F)F)c(NCc3nccnc3N(C)S(C)(=O)=O)n2)cc1
measured.quantity: Growth Rate
value.reported: 1
//
molecule: COc1cc2ncnc(Nc3ccc(F)c(Cl)c3)c2cc1OCCCN1CCOCC1
measured.quantity: Growth Rate
value.reported: 1
//
molecule: Cc1cc(C(C)(C)C)c(O)c(C)c1CC1=NCCN1.Cl [OXYMETAZOLINE HYDROCHLORIDE]
measured.quantity: Growth Rate
value.reported: 1
//
molecule: CC1(C)CCC(C)(C)c2cc(C(=O)Nc3ccc(C(=O)O)cc3)ccc21
measured.quantity: Growth Rate
value.reported: 0
//
molecule: Cl.O=C(O)c1cc(-c2ccc(C3CCNCC3)cc2)c2ccc(-c3ccc(C(F)(F)F)cc3)cc2c1
measured.quantity: Growth Rate
value.reported: 0

Measured Growth Rate of `Cl.Clc1cccc(COc2cncc(N3CCNCC3)n2)c1` : 0

Measured Growth Rate of `O=C(O)CC/C=C\C[C@@H]1CO[C@H](c2ccccc2Cl)O[C@@H]1c1ccccc1O` : 0

Measured Growth Rate of `CC#CC(=O)N1CCC[C@H]1c1nc(-c2ccc(C(=O)Nc3ccccn3)cc2)c2c(N)nccn12` : 0

These measurements were taken from ChEMBL document CHEMBL4689842.
